- TESTED ON: HIV-1 integrase (HIV-1)
- PROTOCOL DETAILS: cell-based or functional assay
REPORTED METRIC: EC50 (µM) IN/DNA dissociation
Answers are plain numbers, in µM.

Below: 2 binders and their reported EC50 (µM) IN/DNA dissociation.
GTKWLTEWIPLTAEAE (modifications not checked) [PAW]
15
GTKWLTEWIPL (modifications not checked) [P24]
21

Kindly give each listed record's EC50 (µM) IN/DNA dissociation.
1. GTKWLTEVWPL (modifications not checked) [P16]
2. KWLTEWIPLTAEAE (modifications not checked) [P26]

Output:
1: 11; 2: 67
